- Test system: HCT-15 colon
- method-description: NCI-60 one-dose screen, 48 h (100 = growth as untreated, 0 = no growth, -100 = all killed)
- assay-context: 10 µM unless noted
The panel holds about 83,000 compounds, 20% with a hit somewhere; the sample as a whole holds those more often. Active and inactive are the calls of the source. The calls were made as follows: active = growth percent below 10; inactive = the rest.
Known growth of a selection of molecules

>  <molecule>
Cc1ccccc1C(=O)c1ccccc1C(=O)O

>  <growth>
107% (inactive)

$$$$
>  <molecule>
FC(F)(F)c1cccc(-n2nnc3cnc(Nc4ccc(N5CCCCC5)cc4)nc32)c1

>  <growth>
66.1% (inactive)

$$$$
>  <molecule>
COc1ccc(C2CC(c3cccs3)=NN2c2ccc(S(=O)(=O)NC(=O)NCc3cccc(OC)c3)cc2)cc1 (centres undefined)

>  <growth>
102% (inactive)

$$$$
>  <molecule>
COC(=O)CCCCCCN=Cc1c(O)c(O)c(C(C)C)c2cc(C)c(-c3c(C)cc4c(C(C)C)c(O)c(O)c(C=NCCCCCCC(=O)OC)c4c3O)c(O)c12

>  <growth>
13.1% (inactive)

$$$$
